Source: paper PMC11040118

pIC50: recorded values
- tgt: UniProtKB P14650
- Sequence (P14650 32-914): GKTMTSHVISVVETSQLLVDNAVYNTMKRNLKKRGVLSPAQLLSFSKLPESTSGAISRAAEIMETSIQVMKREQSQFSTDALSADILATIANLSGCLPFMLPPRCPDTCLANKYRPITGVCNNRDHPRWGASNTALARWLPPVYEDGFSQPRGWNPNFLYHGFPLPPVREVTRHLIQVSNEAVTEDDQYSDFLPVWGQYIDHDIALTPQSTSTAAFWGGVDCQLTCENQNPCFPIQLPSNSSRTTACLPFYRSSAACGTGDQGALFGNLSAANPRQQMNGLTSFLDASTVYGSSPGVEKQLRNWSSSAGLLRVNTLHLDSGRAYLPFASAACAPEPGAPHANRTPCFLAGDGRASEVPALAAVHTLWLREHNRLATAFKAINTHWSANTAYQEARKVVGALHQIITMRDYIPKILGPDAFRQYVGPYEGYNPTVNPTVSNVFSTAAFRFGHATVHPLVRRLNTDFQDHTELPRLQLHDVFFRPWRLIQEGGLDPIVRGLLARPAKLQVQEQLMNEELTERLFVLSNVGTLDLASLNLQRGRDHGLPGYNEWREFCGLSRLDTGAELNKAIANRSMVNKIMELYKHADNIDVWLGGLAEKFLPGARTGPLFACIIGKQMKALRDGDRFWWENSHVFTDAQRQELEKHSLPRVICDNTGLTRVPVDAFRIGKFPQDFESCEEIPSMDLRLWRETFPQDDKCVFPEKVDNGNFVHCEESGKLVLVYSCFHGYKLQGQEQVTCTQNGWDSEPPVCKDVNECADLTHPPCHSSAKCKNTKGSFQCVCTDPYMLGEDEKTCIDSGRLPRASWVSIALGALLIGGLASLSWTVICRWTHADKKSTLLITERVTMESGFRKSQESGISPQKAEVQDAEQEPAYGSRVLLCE
- Assay type: biochemical
- assay-setup: AVG IC50 ± SD, L-Tyr to MIT, rat thyroid microsomes; mean of N = 3 ± SD
pIC50: −log10 of the molar value.

compound: NC(=S)Nc1ccccc1 [Phenylthiourea]
pIC50: 5.56
--
compound: Oc1ccc(/C=C/c2cc(O)cc(O)c2)cc1 [Reservatrol, Resveratrol]
pIC50: 6.15
--
compound: CC[C@H](c1ccc(O)cc1)[C@@H](CC)c1ccc(O)cc1 [Hexestrol]
pIC50: 5.11
--
compound: COc1cc(/C=C/C(=O)CC(=O)/C=C/c2ccc(O)c(OC)c2)ccc1O [Curcumin]
pIC50: 5.74
--
compound: Oc1ccc(OCc2ccccc2)cc1 [4-Benzyloxy phenol, 4-Benzyloxyphenol]
pIC50: 5.06
--
compound: O=c1c(O)c(-c2ccc(O)cc2)oc2cc(O)cc(O)c12 [Kaemferol, Kaempferol]
pIC50: 5.31
--
compound: COc1cc(CCC(=O)CC(=O)CCc2ccc(O)c(OC)c2)ccc1O [Tetrahydro curcumin, Tetrahydrocurcumin]
pIC50: 5.82
--
compound: O=C(O)c1cc(O)c(O)c(O)c1 [Gallic acid hydrate]
pIC50: 6.10
